- STUDY_TARGET: hGIPR (Homo sapiens)
- Sequence (P48546 22-466): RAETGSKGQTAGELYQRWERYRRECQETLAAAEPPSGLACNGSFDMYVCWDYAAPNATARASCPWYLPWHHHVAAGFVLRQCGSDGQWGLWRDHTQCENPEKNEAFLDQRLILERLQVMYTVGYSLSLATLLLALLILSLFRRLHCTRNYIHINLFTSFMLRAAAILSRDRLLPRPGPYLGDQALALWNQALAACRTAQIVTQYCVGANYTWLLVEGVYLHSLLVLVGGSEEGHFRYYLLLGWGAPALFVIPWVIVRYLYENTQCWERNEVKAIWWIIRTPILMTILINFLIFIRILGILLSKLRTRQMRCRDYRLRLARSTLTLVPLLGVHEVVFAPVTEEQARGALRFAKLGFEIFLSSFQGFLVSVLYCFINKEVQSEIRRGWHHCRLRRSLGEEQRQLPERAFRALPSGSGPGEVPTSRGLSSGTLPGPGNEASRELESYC
- ASSAY_NOTES: Functional cAMP activity in the presence of 1% HSA
- Format: cell-based
- CONDITIONS_USED: read-out: cAMP Rel EC50, hGIPR
Starred links: 1 amine or outer side, 2 acyl side, 3 side chain; linkers in the order of their positions; H or OH if unused. Non-standard residues stand in square brackets, D forms with d. Groups on a side chain read outwards from the residue. *: point of attachment. C18 diacid = O=C(O)CCCCCCCCCCCCCCCCC(=O)*; αMePhe(2-F) = C[C@](N)(Cc1ccccc1F)C(=O)O; γGlu = O=C(O)[C@H](CCC(=O)[*:2])N[*:1]; αMe4Pal = C[C@](N)(Cc1ccncc1)C(=O)O; αMeY = C[C@](N)(Cc1ccc(O)cc1)C(=O)O; 4Pal = N[C@@H](Cc1ccncc1)C(=O)O; αMeL = CC(C)C[C@](C)(N)C(=O)O; αMeS = C[C@](N)(CO)C(=O)O; Orn = NCCC[C@H](N)C(=O)O; Dap = NC[C@H](N)C(=O)O; AEEA = NCCOCCOCC(=O)O; Aib = CC(C)(N)C(=O)O
Assignment: determine reported log10(EC50) for the given substances.
Friendly reminder: values = log10 of EC50, unit pM.

**Q:** Recall the recorded log10(EC50) for H-Y[Aib]QGT[αMePhe(2-F)]TSD[4Pal][αMeS]I[αMeL]LD[Orn]K([Glu-γGlu-C18 diacid])AQ[Aib][Orn]FI[dE][αMeY]LSEGGPSSGEPPPSGTE-NH2 [Example 563] with hGIPR (Homo sapiens) and state it.
**A:** 4.07

**Q:** Recall the recorded log10(EC50) for H-Y[Aib]QGT[αMePhe(2-F)]TSD[4Pal][αMeS]I[αMeL]LD[Orn]K([AEEA-AEEA-γGlu-C18 diacid])AQ[αMe4Pal]EFI[dE][αMeY]LIEGGPSSGEPPPSGS-NH2 [Example 1208] with hGIPR (Homo sapiens) and state it.
**A:** 2.90

**Q:** Recall the recorded log10(EC50) for H-Y[Aib]QGTFTSDFS[Dap][αMeL]LDKK([AEEA-γGlu-C18 diacid])AQ[Aib]AFIEYLIE[Aib]GPSSGAPPPSGS-NH2 [Example 800] with hGIPR (Homo sapiens) and state it.
**A:** 4.60

**Q:** Recall the recorded log10(EC50) for H-Y[Aib]QGT[αMePhe(2-F)]TSD[4Pal][αMeS]I[αMeL]LD[Orn]K([AEEA-γGlu-C18 diacid])AQ[Aib][Orn]FI[dE][αMeY]LIEGGPSSGEPPPEGE-NH2 [Example 698] with hGIPR (Homo sapiens) and state it.
**A:** 2.92

**Q:** Recall the recorded log10(EC50) for H-Y[Aib]QGT[αMePhe(2-F)]TSD[4Pal][αMeS]I[αMeL]LD[Orn]K([AEEA-γGlu-C18 diacid])AQ[αMe4Pal]EFI[dE][αMeY]LIEGGPSSGAPPPEGGGEE-NH2 [Example 1216] with hGIPR (Homo sapiens) and state it.
**A:** 2.96
